Would you mind telling me the reported self-cleavage kobs at 160 uM GlcN6P of each entry?
B1: glmS ribozyme (parent)
chain: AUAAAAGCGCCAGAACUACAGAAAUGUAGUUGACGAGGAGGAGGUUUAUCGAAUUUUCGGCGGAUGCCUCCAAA

# Variants of: B1
# experimentalDetails: self-cleavage kobs at 160 uM GlcN6P; higher = faster cleavage; RNA array
# conditionParameters: with glucosamine-6-phosphate
This sample holds only a part of the variants without activity.

Could you share which self-cleavage kobs at 160 uM GlcN6P value was measured for A15C U65A ?
3.48e-05 s⁻¹

Could you share which self-cleavage kobs at 160 uM GlcN6P value was measured for G59C C61G ?
< 1e-05 s⁻¹

Could you share which self-cleavage kobs at 160 uM GlcN6P value was measured for A6U C34G ?
< 1e-05 s⁻¹

Could you share which self-cleavage kobs at 160 uM GlcN6P value was measured for U65G C67A C71G ?
0.000166 s⁻¹

Could you share which self-cleavage kobs at 160 uM GlcN6P value was measured for C10G G62A ?
< 1e-05 s⁻¹

Could you share which self-cleavage kobs at 160 uM GlcN6P value was measured for U45G A64U ?
< 1e-05 s⁻¹

Could you share which self-cleavage kobs at 160 uM GlcN6P value was measured for G43C U56A ?
< 1e-05 s⁻¹

Could you share which self-cleavage kobs at 160 uM GlcN6P value was measured for U49A G62A ?
< 1e-05 s⁻¹

Could you share which self-cleavage kobs at 160 uM GlcN6P value was measured for A36G G38U ?
< 1e-05 s⁻¹

Could you share which self-cleavage kobs at 160 uM GlcN6P value was measured for `C67G` ?
0.000109 s⁻¹

Could you share which self-cleavage kobs at 160 uM GlcN6P value was measured for C11G C67A C71G ?
4.73e-05 s⁻¹
